# systemName: tetrameric transthyretin (TTR) (UniProt P02766 21-147)
# protocolNotes: SPR; OpenSPR (Nicoya), TTR immobilised on a COOH chip by amine coupling; Aβ peptides injected (Aβ C-terminals 2.4-48 µM; Aβ (1–40/42) 0.2-20 µM); PBS pH 6.8 with 0.005% Tween 20; 150 s association, 400 s dissociation; 1:1 interaction model
# assaySetup: both partners purified
Square brackets hold non-standard residues; d marks the D form. Ends that are not written are not given here.
property: koff (s⁻¹)

Take a look at these entries with their results.
LVFFAEDVG[dS]NKGAIIGLMV (amyloid beta residues 17-36 with D-isomerized Ser; also called single D-isomerized Aβ (17–36); source: bought: Sangon Biotech Co., Ltd. (Shanghai, China)) [dS Aβ (17–36)] :: 0.114
LVFFAE[dD]VG[dS]NKGAIIGLMV (amyloid beta residues 17-36 with D-isomerized Asp and Ser; also called co-isomerized Aβ (17–36); source: bought: Sangon Biotech Co., Ltd. (Shanghai, China)) [dDdS Aβ (17–36)] :: 0.102

a = LVFFAE[dD]VGSNKGAIIGLMV (amyloid beta residues 17-36 with D-isomerized Asp; also called single D-isomerized Aβ (17–36); source: bought: Sangon Biotech Co., Ltd. (Shanghai, China)) [dD Aβ (17–36)]
b = LVFFAEDVGSNKGAIIGLMV (amyloid beta residues 17-36, all L; also called Aβ C-terminal fragment; source: bought: Sangon Biotech Co., Ltd. (Shanghai, China)) [WT Aβ (17–36)]
Prompt line: Which is greater in koff, the first item a or the second item b ? I would appreciate it if you answered with the label of your choice.
Response line: a
(a: 0.132 s⁻¹, b: 0.008 s⁻¹)
